The reported numbers originate from patent US20260241012A1.

Molecular target: N-terminal HiBiT tagged BCL6 (Homo sapiens)
Construct: expressed in transfected cells; host or cells: HT1080 (ATCC CCL-121), stably transduced with lentivirus pLV-UBC-N-HiBiT-BCL6-PGK-puro
Experiment: HiBiT based degradation assay
Assay type: cell-based
Conditions: HT1080 cells expressing N-terminal HiBiT tagged BCL6; 5 hours of incubation; BCL6 degradation normalized with DMSO control
Protocol: Human BCL6 protein coding open reading frame fused with N-terminal HiBiT coding sequence was synthesized from Integrated DNA Technologies (IDT). […] HT1080 cells expressing N-terminal HiBiT tagged BCL6 were dispensed into a 384-well plate pre-spotted with compounds at varying concentrations. […] After incubation, luminescence was read on a PHERAstar FSX Plate Reader (BMG). […]

[
  {
    "compound": "CNC(=O)COc1cc2cc(Nc3nc(N4CCN(C[C@H]5CCN(c6ccc7c(C8CCC(=O)NC8=O)nn(C)c7c6)C5)[C@H](C)C4)ncc3Cl)cnc2n(C(C)C)c1=O (stereo partly drawn) [Compound 216c]",
    "Ymin (5 hr)": "++ (50% ≤ Ymin < 70%)"
  },
  {
    "compound": "CNC(=O)COc1cc2cc(Nc3nc(N4CCC([C@@](C)(O)C5CCN(c6ccc7c(C8CCC(=O)NC8=O)nn(C)c7c6)CC5)CC4)ncc3Cl)cnc2n(C(C)C)c1=O (single isomer, unassigned) [Compound 201a]",
    "Ymin (5 hr)": "++ (50% ≤ Ymin < 70%)"
  }
]

---

target: N-terminal HiBiT tagged BCL6 (Homo sapiens); construct: expressed in transfected cells; host or cells: HT1080 (ATCC CCL-121), stably transduced with lentivirus pLV-UBC-N-HiBiT-BCL6-PGK-puro; assay: HiBiT based degradation assay; format: cell-based; settings: HT1080 cells expressing N-terminal HiBiT tagged BCL6; 5 hours of incubation; BCL6 degradation normalized with DMSO control
parameter measured: Ymin (5 hr)

[
  {
    "molecule": "CNC(=O)COc1cc2cc(Nc3nc(N4CCN(CC5CCN(c6cccc7c(C8CCC(=O)NC8=O)nn(C)c67)CC5)[C@H](C(C)(C)O)C4)ncc3Cl)cnc2n(C(C)C)c1=O (some centres unmarked) [Compound 208a]",
    "target or test system": "N-terminal HiBiT tagged BCL6 (Homo sapiens)",
    "Ymin (5 hr)": "+++ (30% ≤ Ymin < 50%)"
  },
  {
    "molecule": "CNC(=O)COc1cc2cc(Nc3nc(N4CCC5(CC4)CN(CC4CCN(c6ccc7c(C8CCC(=O)NC8=O)nn(C)c7c6)CC4)C5)ncc3Cl)cnc2n(C)c1=O (centres unmarked) [Compound 121]",
    "target or test system": "N-terminal HiBiT tagged BCL6 (Homo sapiens)",
    "Ymin (5 hr)": "+++ (30% ≤ Ymin < 50%)"
  },
  {
    "molecule": "CNC(=O)COc1cc2cc(Nc3nc(N4CCC(CN5CCN(c6cccc7c(C8CCC(=O)NC8=O)nn(C)c67)C[C@@H]5C)CC4)ncc3F)cnc2n(C(C)C)c1=O (some centres unmarked) [Compound 188b]",
    "target or test system": "N-terminal HiBiT tagged BCL6 (Homo sapiens)",
    "Ymin (5 hr)": "++++ (Ymin < 30%)"
  },
  {
    "molecule": "CNC(=O)COc1cc2cc(Nc3nc(N4CCN([C@@H](C)C5CCN(c6cccc7c(C8CCC(=O)NC8=O)nn(C)c67)CC5)CC4)ncc3Cl)cnc2n(C(C)C)c1=O (single isomer, unassigned) [Compound 195a]",
    "target or test system": "N-terminal HiBiT tagged BCL6 (Homo sapiens)",
    "Ymin (5 hr)": "++++ (Ymin < 30%)"
  }
]

Now for another entry.
Entry CNC(=O)COc1cc2cc(Nc3nc(N4CCC(C(=O)N5CCN(c6ccc7c(C8CCC(=O)NC8=O)nn(C)c7c6)CC5)CC4)ncc3Cl)cnc2n(C(C)C)c1=O (centres unmarked) [Compound 211] ; assay system N-terminal HiBiT tagged BCL6 (Homo sapiens); Ymin (5 hr) recorded at +++ (30% ≤ Ymin < 50%)

---

biological target: N-terminal HiBiT tagged BCL6 (Homo sapiens, UniProt P41182); construct: expressed in transfected cells; host or cells: HT1080 (ATCC CCL-121), stably transduced with lentivirus pLV-UBC-N-HiBiT-BCL6-PGK-puro; assay: HiBiT based degradation assay; format: cell-based; conditions: HT1080 cells expressing N-terminal HiBiT tagged BCL6; 5 hours of incubation; BCL6 degradation normalized with DMSO control
parameter measured: Ymin (5 hr)

[
  {
    "compound": "CNC(=O)COc1cc2cc(Nc3nc(N4CCN(CC5CCN(c6cccc7c(C8CCC(=O)NC8=O)nn(C)c67)CC5)C5(CC5)C4)ncc3Cl)cnc2n(C(C)C)c1=O (stereo not drawn) [Compound 191]",
    "observed": "+++ (30% ≤ Ymin < 50%)"
  },
  {
    "compound": "CNC(=O)COc1cc2cc(Nc3nc(N4CC[C@@H](CN5CCN(c6ccc7c(C8CCC(=O)NC8=O)nn(C)c7c6)CC5)[C@@H](C)C4)ncc3Cl)cnc2n(C(C)C)c1=O (stereo partly drawn) [Compound 176c]",
    "observed": "+++ (30% ≤ Ymin < 50%)"
  },
  {
    "compound": "CNC(=O)COc1cc2cc(Nc3nc(N4CC[C@H](CN5CCN(c6ccc7c(C8CCC(=O)NC8=O)nn(C)c7c6)CC5)[C@H](C)C4)ncc3Cl)cnc2n(C(C)C)c1=O (stereo partly drawn) [Compound 176a]",
    "observed": "+++ (30% ≤ Ymin < 50%)"
  }
]

---

biological target: N-terminal HiBiT tagged BCL6 (Homo sapiens); construct: expressed in transfected cells; host or cells: HT1080 (ATCC CCL-121), stably transduced with lentivirus pLV-UBC-N-HiBiT-BCL6-PGK-puro; test: HiBiT based degradation assay; assay type: cell-based; settings: HT1080 cells expressing N-terminal HiBiT tagged BCL6; 5 hours of incubation; four-parameter logistic model; read-out: EC50 (5 hr)
parameter measured: DC50

Here's what some known entries look like.
[
  {
    "compound": "CNC(=O)COc1cc2cc(Nc3nc(N4CC[C@@H](CN5CCN(c6cccc7c(C8CCC(=O)NC8=O)nn(C)c67)CC5)[C@H](F)C4)ncc3Cl)cnc2n(C(C)C)c1=O (relative stereo) [Compound 238a]",
    "target or test system": "N-terminal HiBiT tagged BCL6 (Homo sapiens)",
    "DC50": "10 to 100 nM"
  },
  {
    "compound": "CNC(=O)COc1cc2cc(Nc3nc(N4CC5(CC[C@H](Nc6ccc7c(C8CCC(=O)NC8=O)nn(C)c7c6)[C@@H](C(F)(F)F)C5)C4)ncc3Cl)cnc2n(C(C)C)c1=O (relative stereo) [Compound 221b]",
    "target or test system": "N-terminal HiBiT tagged BCL6 (Homo sapiens)",
    "DC50": "< 10 nM"
  },
  {
    "compound": "CNC(=O)COc1cc2cc(Nc3nc(N4CCC(O[C@H]5C[C@H](N6CCN(c7ccc8c(C9CCC(=O)NC9=O)nn(C)c8c7)CC6)C5)CC4)ncc3Cl)cnc2n(C(C)C)c1=O (some centres unmarked) [Compound 226a]",
    "target or test system": "N-terminal HiBiT tagged BCL6 (Homo sapiens)",
    "DC50": "< 10 nM"
  }
]

Per the record, CNC(=O)COc1cc2cc(Nc3nc(N4CC5(CCC(Nc6cccc7c(C8CCC(=O)NC8=O)nn(C)c67)CC5)C4)ncc3Cl)cnc2n(C)c1=O (centres unmarked) has DC50 of < 10 nM

Per the record, CNC(=O)COc1cc2cc(Nc3nc(N4C5CC4CN(CC4CCN(c6cccc7c(C8CCC(=O)NC8=O)nn(C)c67)CC4)C5)ncc3Cl)cnc2n(C(C)C)c1=O (centres unmarked) has DC50 of 10 to 100 nM

---

target: N-terminal HiBiT tagged BCL6 (Homo sapiens); construct: expressed in transfected cells; host or cells: HT1080 (ATCC CCL-121), stably transduced with lentivirus pLV-UBC-N-HiBiT-BCL6-PGK-puro; test: HiBiT based degradation assay; type: cell-based; conditions: HT1080 cells expressing N-terminal HiBiT tagged BCL6; 5 hours of incubation; four-parameter logistic model; read-out: EC50 (5 hr)
parameter measured: DC50

Per the record, CNC(=O)COc1cc2cc(Nc3nc(N4CCC(CN5CCN(c6ccc7c(C8CCC(=O)NC8=O)nn(C)c7c6)CC5)CC4)ncc3Cl)cnc2n(C(C)C)c1=O (centres unmarked) has DC50 of < 10 nM

Per the record, CNC(=O)COc1cc2cc(Nc3nc(N4CCC([C@H](C)N5CCN(c6cccc7c(C8CCC(=O)NC8=O)nn(C)c67)CC5)CC4)ncc3Cl)cnc2n(C(C)C)c1=O (single isomer, unassigned) [Compound 193b] has DC50 of 10 to 100 nM

Per the record, CNC(=O)COc1cc2cc(Nc3nc(N4CCN(CC5CCN(c6cccc7c(C8CCC(=O)NC8=O)nn(C)c67)CC5)C5(CC5)C4)ncc3Cl)cnc2n(C(C)C)c1=O (centres unmarked) has DC50 of 10 to 100 nM

Per the record, CNC(=O)COc1cc2cc(Nc3nc(N4CCC(CN5CCCN(c6cccc7c(C8CCC(=O)NC8=O)nn(C)c67)CC5)CC4)ncc3Cl)cnc2n(C(C)C)c1=O (centres unmarked) has DC50 of < 10 nM

Per the record, CNC(=O)COc1cc2cc(Nc3nc(N4CCN(CC5CCN(c6cccc7c(N8CCC(=O)NC8=O)nn(C)c67)CC5)CC4)ncc3Cl)cnc2n(C(C)C)c1=O has DC50 of 10 to 100 nM

Per the record, CNC(=O)COc1cc2cc(Nc3nc(N4CC[C@H](CN5CCN(c6cccc7c(C8CCC(=O)NC8=O)nn(C)c67)CC5)[C@H](C)C4)ncc3Cl)cnc2n(C(C)C)c1=O (some centres unmarked) [Compound 177a] has DC50 of 10 to 100 nM

Per the record, CNC(=O)COc1cc2cc(Nc3nc(N4CC[C@H](CN5CCC(c6ccc7c(C8CCC(=O)NC8=O)nn(C)c7c6)CC5)[C@H](F)C4)ncc3Cl)cnc2n(C(C)C)c1=O (relative stereo) [Compound 242a] has DC50 of < 10 nM

Per the record, CNC(=O)COc1cc2cc(Nc3nc(N4CCC5(CCC(CN6CCN(c7ccc8c(C9CCC(=O)NC9=O)nn(C)c8c7)CC6)CC5)CC4)ncc3Cl)cnc2n(C(C)C)c1=O (centres unmarked) has DC50 of 10 to 100 nM

Per the record, CNC(=O)COc1cc2cc(Nc3nc(N4CCC(CN5CCN(c6ccc7c(C8CCC(=O)NC8=O)nn(C)c7c6)C[C@@H]5C)CC4)ncc3Cl)cnc2n(C(C)C)c1=O (some centres unmarked) [Compound 215b] has DC50 of 10 to 100 nM

Per the record, CNC(=O)COc1cc2cc(Nc3nc(N4CCC(Oc5cccc6c(C7CCC(=O)NC7=O)nn(C)c56)CC4)ncc3Cl)cnc2n(C)c1=O (centres unmarked) has DC50 of < 10 nM

Per the record, CNC(=O)COc1cc2cc(Nc3nc(N4CC5(CCC(Oc6ccc7c(C8CCC(=O)NC8=O)nn(C)c7c6)CC5)C4)ncc3Cl)cnc2n(C)c1=O (centres unmarked) has DC50 of < 10 nM
